Tested on: MCD4 cells
ASSAY REMARKS: F-actin stress fiber staining (phalloidin)
Assay type: cell-based, mouse
COND: compound 30 µM, 1 h

SMILES ENTRY: O=C(Cc1ccc(Nc2ncc(F)c(Nc3ccc(C(=O)Nc4ccccc4Cl)cc3)n2)cc1)NCCN1CCOCC1
effect on actin stress fibers: Comparable effects

SMILES ENTRY: NC(=O)Cc1ccc(Nc2ncc(F)c(Nc3ccc(C(=O)Nc4ccccc4Cl)cc3)n2)cc1
effect on actin stress fibers: Comparable effects

* * *

ΔTm at 10 µM overview
TESTED TARGET: VRK1 (Homo sapiens, UniProt Q99986)
Construct: purchased in-house thermal shift (DSF) kinase panel (SGC Frankfurt); Promega NanoBRET for AURKA/B/C
Sequence (Q99986 1-396): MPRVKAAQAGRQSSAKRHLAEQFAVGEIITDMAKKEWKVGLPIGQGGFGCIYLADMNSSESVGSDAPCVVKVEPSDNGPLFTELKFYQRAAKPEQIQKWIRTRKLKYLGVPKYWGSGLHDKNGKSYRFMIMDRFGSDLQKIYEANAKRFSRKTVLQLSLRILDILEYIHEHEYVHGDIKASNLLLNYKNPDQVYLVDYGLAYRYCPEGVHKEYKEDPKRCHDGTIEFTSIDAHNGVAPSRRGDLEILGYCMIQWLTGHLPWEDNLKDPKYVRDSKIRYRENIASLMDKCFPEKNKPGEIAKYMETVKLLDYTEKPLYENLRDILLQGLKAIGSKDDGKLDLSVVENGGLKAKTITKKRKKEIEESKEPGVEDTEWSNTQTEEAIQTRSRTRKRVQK
ASSAY REMARKS: Thermal shift assay
Assay type: binding
COND: compound 10 µM; n = 3; read-out: ΔTm VRK1

SMILES ENTRY: NC(=O)Cc1ccc(Nc2ncc(F)c(Nc3ccc(C(=O)Nc4ccccc4Cl)cc3)n2)cc1
ΔTm at 10 µM, °C: 0.2
//
SMILES ENTRY: O=C(Cc1ccc(Nc2ncc(F)c(Nc3ccc(C(=O)Nc4ccccc4Cl)cc3)n2)cc1)NCCN1CCOCC1
ΔTm at 10 µM, °C: 0.3
//
SMILES ENTRY: CCN1CCN(C(=O)Cc2ccc(Nc3ncc(F)c(Nc4ccc(C(=O)O)cc4)n3)cc2)CC1
ΔTm at 10 µM, °C: 0.1
//
SMILES ENTRY: CCN1CCN(C(=O)Cc2ccc(Nc3ncc(F)c(Nc4ccc(C(=O)Nc5ccccc5)cc4)n3)cc2)CC1
ΔTm at 10 µM, °C: 0.1

* * *

TESTED TARGET: STK10 (Homo sapiens)
Construct: purchased in-house thermal shift (DSF) kinase panel (SGC Frankfurt); Promega NanoBRET for AURKA/B/C
Sequence (O94804 18-317): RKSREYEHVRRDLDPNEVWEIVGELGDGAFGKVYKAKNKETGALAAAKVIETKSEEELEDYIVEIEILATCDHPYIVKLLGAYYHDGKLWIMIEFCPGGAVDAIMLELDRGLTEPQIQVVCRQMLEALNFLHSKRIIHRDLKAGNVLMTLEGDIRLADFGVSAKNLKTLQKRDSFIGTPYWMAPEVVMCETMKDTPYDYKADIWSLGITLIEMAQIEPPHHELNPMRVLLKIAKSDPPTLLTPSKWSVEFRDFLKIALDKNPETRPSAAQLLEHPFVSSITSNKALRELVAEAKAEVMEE
ASSAY REMARKS: Thermal shift assay
Assay type: binding
COND: compound 10 µM; n = 3; read-out: ΔTm STK10

SMILES ENTRY: NC(=O)Cc1ccc(Nc2ncc(F)c(Nc3ccc(C(=O)Nc4ccccc4Cl)cc3)n2)cc1
ΔTm at 10 µM [°C]: 1.4
//
SMILES ENTRY: O=C(Cc1ccc(Nc2ncc(F)c(Nc3ccc(C(=O)Nc4ccccc4Cl)cc3)n2)cc1)NCCN1CCOCC1
ΔTm at 10 µM [°C]: 0.6
//
SMILES ENTRY: CCN1CCN(C(=O)Cc2ccc(Nc3ncc(F)c(Nc4ccc(C(=O)O)cc4)n3)cc2)CC1
ΔTm at 10 µM [°C]: 2.2
//
SMILES ENTRY: CCN1CCN(C(=O)Cc2ccc(Nc3ncc(F)c(Nc4ccc(C(=O)Nc5ccccc5)cc4)n3)cc2)CC1
ΔTm at 10 µM [°C]: 4.8

Data provenance is paper PMC8776063.
